Target: human orexin 2 receptor (hOx2R) (Homo sapiens, UniProt O43614)
Construct: expressed in transfected cells
Sequence (O43614 whole entry): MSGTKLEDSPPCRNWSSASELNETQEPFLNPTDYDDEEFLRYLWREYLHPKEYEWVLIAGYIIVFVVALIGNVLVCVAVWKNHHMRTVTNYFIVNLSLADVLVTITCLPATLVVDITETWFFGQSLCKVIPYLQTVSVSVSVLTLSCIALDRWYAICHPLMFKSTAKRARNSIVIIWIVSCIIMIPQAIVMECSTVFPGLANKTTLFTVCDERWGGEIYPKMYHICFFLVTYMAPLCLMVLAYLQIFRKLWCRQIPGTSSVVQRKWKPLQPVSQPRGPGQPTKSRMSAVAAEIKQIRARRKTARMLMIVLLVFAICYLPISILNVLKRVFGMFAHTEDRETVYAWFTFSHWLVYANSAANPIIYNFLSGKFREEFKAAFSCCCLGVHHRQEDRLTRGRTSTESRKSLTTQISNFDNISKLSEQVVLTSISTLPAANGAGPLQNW
Experiment: Radioligand binding assay ([125I]orexin A competition), hOx2R
Conditions: CHO or HEK cell membranes, 1 h room temperature
Would you kindly list pKd for each of these molecules?
Lab note — pKd values are minus log10 of concentrations in M.

[ask] Return pKd (reported value) for this molecule: CN(C(=O)c1ccc2ccccc2c1)[C@H](CCNC(=O)c1nc2ccccc2n1C)Cc1ccc(Cl)cc1
[reply] 5.95

[ask] Return pKd (reported value) for this molecule: CN(C(=O)c1ccccc1)[C@@H](Cc1ccccc1)[C@@H](O)CNC(=O)c1ccccn1
[reply] 7.23

[ask] Return pKd (reported value) for this molecule: Cc1cc(F)cc(C(=O)N(C)[C@H](CCNC(=O)c2cccn2C)Cc2ccccc2)c1
[reply] 7.41

[ask] Return pKd (reported value) for this molecule: Cc1cc(C)cc(C(=O)N(C)[C@H](CCNC(=O)c2cccn2C)Cc2ccccc2)c1
[reply] 8.15

[ask] Return pKd (reported value) for this molecule: Cc1cccc(C(=O)N(C)[C@H](CCNC(=O)c2cccn2C)Cc2ccccc2)c1
[reply] 7.85

[ask] Return pKd (reported value) for this molecule: CN(C(=O)c1cc(C(F)(F)F)cc(C(F)(F)F)c1)[C@H](CCNC(=O)c1nc2ccccc2n1C)Cc1ccccc1
[reply] 7.01

[ask] Return pKd (reported value) for this molecule: CN(C(=O)c1ccc2c(c1)OCCO2)[C@H](CCNC(=O)c1ccccn1)Cc1ccccc1
[reply] 5.02

Sourced from patent US20100222396A1
